- Tested on: five strains of EV-D68
- Assay overview: Broad-spectrum antiviral activity, five strains of EV-D68 together
- Type: cell-based, Enterovirus D68
- Assay conditions: Enterovirus D, EVD68, read-out: EC50 values over all five strains
Attribute measured: EC50

Reported EC50 for CC(C)(C)[C@H](NC(=O)CC12CC3CC(CC(C3)C1)C2)C(=O)N1C[C@@H]2CCC[C@@H]2[C@H]1C(=O)N[C@H](C(=O)C(=O)NC1CC1)C1CCCCC1 was 43 to 269 nM
